TARGET_OR_TEST_SYSTEM: T1, GST-hUHRF1-TTD (126-280) D142A (human, UniProt Q96T88 126-280, D142A)
T1 construct: Tandem Tudor domain (TTD) of human UHRF1, UniProt Q96T88, residues 126-280; also called TTD D142A mutant; source: E. coli, purified (Glutathione Agarose 4B); not shown: GST, N-terminal, kept
T1 sequence (looked up): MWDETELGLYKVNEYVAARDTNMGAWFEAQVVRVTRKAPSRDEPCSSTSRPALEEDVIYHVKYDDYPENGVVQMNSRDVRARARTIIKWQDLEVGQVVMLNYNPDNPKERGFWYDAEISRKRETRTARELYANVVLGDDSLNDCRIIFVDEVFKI
PROTOCOL_SUMMARY: fluorescence polarisation; fluorescence anisotropy titration; 100 nM FITC-labeled peptide in the cuvette, protein added stepwise; 23°C; 100 mM KCl, 20 mM HEPES pH 7.5, 10% v/v glycerol
CONDITION_INFO: both partners purified
pKd: −log10 of the molar value. No end group written: not given here. Me3 = trimethyl (trimethyl-lysine)
ENDPOINT_LABEL: pKd

INSERT INTO results (binder, endpoint_label, endpoint_value) VALUES
  ('ARTK(Me)QTARK(Me3)STGGKAPRKQ (peptide, UniProt P68431 2-20, looked up, also: FITC-labeled (position not given here), histone H3 N-terminal tail, residues 1-19; also called H3K4me1-K9me3; H3 K4me1-K9me3) [FITC-labeled H3(1-19) peptide with K4me1 and K9me3]', 'pKd', 5.57);

Source: paper PMC10464304
